target.or.test.system: Progesterone receptor (Homo sapiens, UniProt P06401)
Sequence (P06401 whole entry): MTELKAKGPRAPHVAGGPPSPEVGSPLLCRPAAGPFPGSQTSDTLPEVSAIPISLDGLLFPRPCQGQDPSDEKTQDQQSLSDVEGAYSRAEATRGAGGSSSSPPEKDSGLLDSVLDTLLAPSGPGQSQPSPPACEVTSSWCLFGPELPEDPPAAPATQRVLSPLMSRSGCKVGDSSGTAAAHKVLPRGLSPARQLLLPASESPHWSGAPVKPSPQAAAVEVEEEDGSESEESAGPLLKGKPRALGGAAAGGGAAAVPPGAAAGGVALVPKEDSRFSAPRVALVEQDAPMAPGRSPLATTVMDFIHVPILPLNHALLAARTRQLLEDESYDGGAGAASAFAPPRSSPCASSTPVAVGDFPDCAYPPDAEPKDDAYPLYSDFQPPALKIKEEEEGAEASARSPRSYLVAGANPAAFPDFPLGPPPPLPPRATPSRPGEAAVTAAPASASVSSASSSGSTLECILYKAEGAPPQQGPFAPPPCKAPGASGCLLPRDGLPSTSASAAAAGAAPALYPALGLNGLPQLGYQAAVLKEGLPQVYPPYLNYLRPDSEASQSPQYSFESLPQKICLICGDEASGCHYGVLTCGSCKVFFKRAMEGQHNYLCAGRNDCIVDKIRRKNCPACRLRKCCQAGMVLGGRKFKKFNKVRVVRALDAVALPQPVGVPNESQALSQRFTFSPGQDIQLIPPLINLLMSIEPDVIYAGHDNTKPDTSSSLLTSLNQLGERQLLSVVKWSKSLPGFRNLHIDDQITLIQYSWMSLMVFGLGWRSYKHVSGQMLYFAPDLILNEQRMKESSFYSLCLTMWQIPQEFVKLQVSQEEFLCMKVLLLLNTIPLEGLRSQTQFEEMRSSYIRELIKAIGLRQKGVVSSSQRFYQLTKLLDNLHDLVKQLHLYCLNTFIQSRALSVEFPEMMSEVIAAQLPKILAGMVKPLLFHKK
method: Antagonist activity against human progesterone receptor (hPR) using cotransfection assay in CV-1 cells
Format: functional, cell-based
# strict inequality: IC50 < 100 nM yields Satisfied, everything else yields Not satisfied

{"smiles.code": "Cc1cc(C#N)sc1-c1ccc2c(c1)C(C)(C)C(=O)C(C)(C)N2", "discrete.label": "Satisfied"}
{"smiles.code": "CC1=CC(C)(C)Nc2ccc(-c3ccc([N+](=O)[O-])s3)cc21", "discrete.label": "Satisfied"}
{"smiles.code": "CC1=CC(C)(C)Nc2ccc(-c3sc(C#N)cc3C)cc21", "discrete.label": "Satisfied"}
{"smiles.code": "CC1=CC(C)(C)Nc2ccc(-c3c(C)sc(C#N)c3C)cc21", "discrete.label": "Not satisfied"}
{"smiles.code": "CC1=CC(C)(C)Nc2ccc(-c3ccc(C#N)s3)cc21", "discrete.label": "Satisfied"}
{"smiles.code": "CC1=CC(C)(C)Nc2ccc(-c3sc(C#N)cc3Br)cc21", "discrete.label": "Satisfied"}
{"smiles.code": "CC1=CC(C)(C)Nc2ccc(-c3csc(C=O)c3)cc21", "discrete.label": "Not satisfied"}
{"smiles.code": "CC1=CC(C)(C)Nc2ccc(-c3sccc3C)cc21", "discrete.label": "Not satisfied"}
{"smiles.code": "CC1=CC(C)(C)Nc2ccc(-c3ccsc3C#N)cc21", "discrete.label": "Not satisfied"}
{"smiles.code": "CC1=CC(C)(C)Nc2ccc(-c3cc(Br)cs3)cc21", "discrete.label": "Not satisfied"}
{"smiles.code": "CC1=CC(C)(C)Nc2ccc(-c3ccc(Br)s3)cc21", "discrete.label": "Satisfied"}
{"smiles.code": "CC1=CC(C)(C)Nc2ccc(-c3cc(C#N)sc3C)cc21", "discrete.label": "Not satisfied"}
{"smiles.code": "CC1=CC(C)(C)Nc2ccc(-c3cccs3)cc21", "discrete.label": "Not satisfied"}
{"smiles.code": "CC1=CC(C)(C)Nc2ccc(-c3cc(Br)c(C#N)s3)cc21", "discrete.label": "Not satisfied"}
{"smiles.code": "CC1=CC(C)(C)Nc2ccc(-c3ccc(C=O)s3)cc21", "discrete.label": "Not satisfied"}
{"smiles.code": "CC1(C)Nc2ccc(-c3csc(C#N)c3)cc2C(C)(C)C1=O", "discrete.label": "Satisfied"}
{"smiles.code": "CC1=CC(C)(C)Nc2ccc(-c3ccc(Cl)s3)cc21", "discrete.label": "Satisfied"}
